These entries and their values trace back to paper PMC4786873.

Starred links: 1 amine or outer side, 2 acyl side, 3 side chain; linkers in the order of their positions; H or OH if unused. Non-standard residues stand in square brackets, D forms with d. Residues, ends and D or L forms follow the SMILES beside them. X1 = CC1=CC(C)=[N+]2C1=C(c1cccc(-c3[nH]c4ccccc4c3C[C@H](N[*:1])C(=O)[*:2])c1)c1c(C)cc(C)n1[B-]2(F)F
measurement-type: quantum yield in phospholipid membranes (%)
The reply should be a number in %, with the unit left off.

# input compound: CC1=CC(C)=[N+]2C1=C(c1cccc(-c3[nH]c4ccccc4c3C[C@@H]3NC(=O)[C@H](CCCCN)NC(=O)[C@H](CCCCN)NC(=O)[C@H](CCCNC(=N)N)NC(=O)CNC(=O)[C@H](Cc4c[nH]c5ccccc45)NC(=O)[C@H](Cc4ccccc4)NC3=O)c1)c1c(C)cc(C)n1[B-]2(F)F [compound 8] (cyclo(FWGRKK[X1])) ; wanted: its quantum yield in phospholipid membranes
30

====

Test: Chemical stability in human bronchoalveolar lavages
Type: in vitro ADME
Conditions: human bronchoalveolar lavage from patients with acute respiratory distress syndrome, peptide 20 μM, 37 °C, 24 h, HPLC-UV (C18); read-out: chemical stability in human bronchoalveolar lavage, percentage at 24 h (measure not given)
Starred links: 1 amine or outer side, 2 acyl side, 3 side chain; linkers in the order of their positions; H or OH if unused. Non-standard residues stand in square brackets, D forms with d. Residues, ends and D or L forms follow the SMILES beside them. X1 = CC1=CC(C)=[N+]2C1=C(c1cccc(-c3[nH]c4ccccc4c3C[C@H](N[*:1])C(=O)[*:2])c1)c1c(C)cc(C)n1[B-]2(F)F
measurement-type: remaining at 24 h, 20 μM (%)
Lab book: enter the figure in %, no units written.

Form field: reported remaining at 24 h, 20 μM of CC1=CC(C)=[N+]2C1=C(c1cccc(-c3[nH]c4ccccc4c3C[C@@H]3NC(=O)[C@H](CCCCN)NC(=O)[C@H](CCCCN)NC(=O)[C@H](CCCNC(=N)N)NC(=O)CNC(=O)[C@H](Cc4c[nH]c5ccccc45)NC(=O)[C@H](Cc4ccccc4)NC3=O)c1)c1c(C)cc(C)n1[B-]2(F)F [compound 8] (cyclo(FWGRKK[X1]))
95

====

As shown below, each of these compounds has a reported cell viability, Escherichia coli value.
System: Escherichia coli (ATCC 25922)
Test: In vitro antimicrobial activity (bacterial cell viability, OD600)
Format: cell-based
Conditions: 16 h incubation with peptide at its respective IC50 concentration (A. fumigatus), OD600 nm, n=3
Experimental: P. aeruginosa (ATCC 47085), K. pneumoniae (ATCC BAA1706) and E. coli (ATCC 25922) were grown on Lysogeny Broth (LB) agar plates and stored at 4 °C. For assays, a single colony of bacteria was taken into 10 mL liquid broth and incubated at 37 °C for 16 h. Cultures were centrifuged at 4,000 r.p.m. for 5 min and the pellet was re-suspended in 1 ml of fresh PBS and washed three times. […] Cell viability was monitored over 16 h by measuring OD600 nm in a spectrophotometer. […]
Starred links: 1 amine or outer side, 2 acyl side, 3 side chain; linkers in the order of their positions; H or OH if unused. Non-standard residues stand in square brackets, D forms with d. Residues, ends and D or L forms follow the SMILES beside them. X1 = CC1=CC(C)=[N+]2C1=C(c1cccc(-c3[nH]c4ccccc4c3C[C@H](N[*:1])C(=O)[*:2])c1)c1c(C)cc(C)n1[B-]2(F)F
Report the figure in % without appending any unit label.

Answered cases to consult:
CC1=CC(C)=[N+]2C1=C(c1cccc(-c3[nH]c4ccccc4c3C[C@H](NC(=O)[C@H](CCCCN)NC(=O)[C@H](CCCCN)NC(=O)[C@@H](N)CCCNC(=N)N)C(=O)N[C@@H](Cc3ccccc3)C(=O)N[C@@H](Cc3c[nH]c4ccccc34)C(N)=O)c1)c1c(C)cc(C)n1[B-]2(F)F [compound 5] (H-RKK[X1]FW-NH2) | 94
CC1=CC(C)=[N+]2C1=C(c1cccc(-c3[nH]c4ccccc4c3C[C@H](NC(=O)[C@H](Cc3ccccc3)NC(=O)[C@H](Cc3c(-c4cccc(C5=C6C(C)=CC(C)=[N+]6[B-](F)(F)n6c(C)cc(C)c65)c4)[nH]c4ccccc34)NC(=O)[C@H](CCCCN)NC(=O)[C@H](CCCCN)NC(=O)[C@@H](N)CCCNC(=N)N)C(N)=O)c1)c1c(C)cc(C)n1[B-]2(F)F | 95
CC1=CC(C)=[N+]2C1=C(c1cccc(-c3[nH]c4ccccc4c3C[C@H](NC(=O)[C@H](Cc3ccccc3)NC(=O)[C@H](Cc3c[nH]c4ccccc34)NC(=O)[C@H](CCCCN)NC(=O)[C@H](CCCCN)NC(=O)[C@@H](N)CCCNC(=N)N)C(N)=O)c1)c1c(C)cc(C)n1[B-]2(F)F [compound 6] (H-RKKWF[X1]-NH2) | 95

Could you share which cell viability, Escherichia coli value was measured for CC1=CC(C)=[N+]2C1=C(c1cccc(-c3[nH]c4ccccc4c3C[C@@H]3NC(=O)[C@H](CCCCN)NC(=O)[C@H](CCCCN)NC(=O)[C@H](CCCNC(=N)N)NC(=O)CNC(=O)[C@H](Cc4c[nH]c5ccccc45)NC(=O)[C@H](Cc4ccccc4)NC3=O)c1)c1c(C)cc(C)n1[B-]2(F)F [compound 8] (cyclo(FWGRKK[X1])) ?
96
